target: SMARCA2 (Homo sapiens, UniProt P51531); test: SMARCA2 Western blot degradation in MV4-11 cells; type: cell-based; parameters: SMARCA2/SMARCA4 protein degradation selectivity in MV4-11 cells; endogenous in cells; host or cells: MV4-11; conditions: MV4-11, MV4-11 cells, 24 h; read-out: SMARCA2 MSD MV411 degradation 24 h: average Dmax %
Sequence (P51531 whole entry): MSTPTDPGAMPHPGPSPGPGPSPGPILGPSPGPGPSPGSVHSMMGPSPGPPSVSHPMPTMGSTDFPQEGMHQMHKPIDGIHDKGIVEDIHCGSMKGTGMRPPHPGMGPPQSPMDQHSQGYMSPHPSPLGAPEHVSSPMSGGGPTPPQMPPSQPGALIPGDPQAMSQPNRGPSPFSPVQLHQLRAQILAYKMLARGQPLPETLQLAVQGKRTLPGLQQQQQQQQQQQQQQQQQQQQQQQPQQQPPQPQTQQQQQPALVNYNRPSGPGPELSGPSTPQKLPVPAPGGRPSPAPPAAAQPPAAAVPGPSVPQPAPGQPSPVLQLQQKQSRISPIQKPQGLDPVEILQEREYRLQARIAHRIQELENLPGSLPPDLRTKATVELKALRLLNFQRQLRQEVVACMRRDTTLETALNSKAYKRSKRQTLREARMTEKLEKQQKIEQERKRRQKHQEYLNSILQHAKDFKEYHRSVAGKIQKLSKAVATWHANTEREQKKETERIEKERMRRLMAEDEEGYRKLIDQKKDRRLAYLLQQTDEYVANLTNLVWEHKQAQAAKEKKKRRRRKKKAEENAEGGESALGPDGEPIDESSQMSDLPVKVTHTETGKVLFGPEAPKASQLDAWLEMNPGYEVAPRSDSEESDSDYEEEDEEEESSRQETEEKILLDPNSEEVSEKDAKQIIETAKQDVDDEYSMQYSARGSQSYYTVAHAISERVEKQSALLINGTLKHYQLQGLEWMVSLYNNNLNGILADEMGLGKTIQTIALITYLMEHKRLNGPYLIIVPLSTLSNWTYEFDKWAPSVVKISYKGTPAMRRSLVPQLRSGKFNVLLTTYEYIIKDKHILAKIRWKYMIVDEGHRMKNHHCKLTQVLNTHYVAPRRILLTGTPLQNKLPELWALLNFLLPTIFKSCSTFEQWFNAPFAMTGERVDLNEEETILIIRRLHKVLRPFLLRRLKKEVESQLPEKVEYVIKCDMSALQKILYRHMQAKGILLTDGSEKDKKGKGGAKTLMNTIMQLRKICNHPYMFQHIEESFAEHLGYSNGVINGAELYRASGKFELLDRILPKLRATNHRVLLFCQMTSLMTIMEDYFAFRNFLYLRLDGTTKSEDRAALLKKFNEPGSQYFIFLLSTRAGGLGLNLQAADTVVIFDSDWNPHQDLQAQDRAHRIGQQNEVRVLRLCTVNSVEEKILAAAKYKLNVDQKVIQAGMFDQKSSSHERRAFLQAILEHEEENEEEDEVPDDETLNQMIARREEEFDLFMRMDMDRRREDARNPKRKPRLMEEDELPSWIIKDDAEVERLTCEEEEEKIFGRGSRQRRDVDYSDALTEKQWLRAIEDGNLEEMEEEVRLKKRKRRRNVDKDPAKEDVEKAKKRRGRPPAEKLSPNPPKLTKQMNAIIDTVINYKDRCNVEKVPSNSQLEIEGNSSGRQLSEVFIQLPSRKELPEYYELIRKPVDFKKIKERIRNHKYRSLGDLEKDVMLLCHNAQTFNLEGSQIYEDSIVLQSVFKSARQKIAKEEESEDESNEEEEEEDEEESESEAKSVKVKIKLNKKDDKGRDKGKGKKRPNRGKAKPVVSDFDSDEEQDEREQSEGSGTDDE
Measured Dmax, listed per entry for reference.

compound	Dmax
C#Cc1ccc(CNC(=O)[C@@H]2C[C@@H](O)CN2C(=O)[C@@H](NC(=O)N2CCN(CC3CCN(c4cnc(N5CCN6c7cc(-c8ccccc8O)nnc7NC[C@H]6C5)nc4)CC3)CC2)C(C)(C)C)cc1 [I-163]	70 to 90%

Notebook: C#Cc1ccc([C@H](C)NC(=O)[C@@H]2C[C@@H](O)CN2C(=O)[C@@H](NC(=O)N2CC3(CC(N4CCC(c5cnc(N6CCc7[nH]c8nnc(-c9ccccc9O)cc8c7[C@H]6C)nc5)CC4)C3)C2)C(C)(C)C)c(O)c1 [I-282] , Dmax read as 70 to 90%

Per the records, this compound ( C#Cc1ccc(CNC(=O)[C@@H]2C[C@@H](O)CN2C(=O)[C@@H](NC(=O)C2CCN(C[C@H]3CC[C@@H](N4CCc5[nH]c6nnc(-c7ccccc7O)cc6c5[C@H]4C)CC3)CC2)C(C)(C)C)cc1 (single isomer, unassigned) [I-201] ) has Dmax equal to 70 to 90%

Sure, the documented Dmax for C#Cc1ccc(CNC(=O)[C@@H]2C[C@@H](O)CN2C(=O)[C@@H](NC(=O)[C@H]2CCC3(CC2)C[C@H](N2CCC(N4CC5(CC(N6CCN7c8cc(-c9ccccc9O)nnc8NC[C@H]7C6)C5)C4)CC2)C3)C(C)(C)C)c(Cl)c1 (single isomer, unassigned) [I-220] is 70 to 90%

Measured values drawn from patent US20250170248A1 for this set.
